target: Alpha-1B adrenergic receptor (Homo sapiens, UniProt P35368); experiment: Binding affinity to human adrenergic Alpha-1B receptor expressed in rat intact fibroblasts
Sequence (P35368 whole entry): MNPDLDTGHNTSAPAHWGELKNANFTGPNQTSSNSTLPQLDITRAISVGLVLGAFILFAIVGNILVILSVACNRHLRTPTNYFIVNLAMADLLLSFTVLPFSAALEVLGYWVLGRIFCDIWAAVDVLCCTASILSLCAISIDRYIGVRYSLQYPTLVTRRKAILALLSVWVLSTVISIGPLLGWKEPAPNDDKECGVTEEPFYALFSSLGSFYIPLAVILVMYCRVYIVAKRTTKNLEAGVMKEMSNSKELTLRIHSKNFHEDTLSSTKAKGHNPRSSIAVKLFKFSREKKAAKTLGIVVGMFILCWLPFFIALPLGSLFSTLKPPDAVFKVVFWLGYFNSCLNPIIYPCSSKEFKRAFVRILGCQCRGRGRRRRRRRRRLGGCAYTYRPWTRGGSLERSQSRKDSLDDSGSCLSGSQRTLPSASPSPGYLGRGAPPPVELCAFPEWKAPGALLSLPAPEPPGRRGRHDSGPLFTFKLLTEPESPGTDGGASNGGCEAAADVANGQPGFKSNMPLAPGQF
experimentalEndpoint: Ki

Asked: Suppose we examine the molecule O=c1c2ccccc2c(Cc2ccc(Cl)cc2)nn1CCNCCCCc1ccc(OCCCN2CCCCCC2)cc1 ; what Ki value has been reported?
Given back: 0.316 µM

Asked: Quick one: Ki of CN(C)CCCn1nc(Cc2ccc(Cl)cc2)c2ccccc2c1=O ?
Given back: 0.316 µM

Asked: Quick one: Ki of O=c1c2ccccc2c(Cc2ccc(Cl)cc2)nn1C[C@H]1CCCN1CCCCc1ccc(OCCCN2CCCCCC2)cc1 [GSK-1004723] ?
Given back: 0.0316 µM

Asked: Find the recorded Ki belonging to CN1CCC(n2nc(Cc3ccc(Cl)cc3)c3ccccc3c2=O)CC1 and report it.
Given back: 0.00631 µM

Asked: So what's the measured Ki for this one? O=c1c2ccccc2c(Cc2ccc(Cl)cc2)nn1C[C@@H]1CCCN1CCCCc1ccc(OCCCN2CCCCCC2)cc1
Given back: 0.0398 µM

Data provenance is ChEMBL document CHEMBL1764974.
